Source of measurements: PubChem BioAssay

Answer each item with its documented z-score.
ASSAY_PROCEDURE: yeast growth modulation, basal conditions, primary screen, YJM789 clinical isolate, OD600, 24 h (AID 1089);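 note: growth of clinical yeast isolate S. cerevisiae YJM 789 seeded 1000 cells per well; test concentration not given here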
CONDITION_SUMMARY: S. cerevisiae YJM789 growth, higher = more signal, called active from +8 up or from −8 down
One number for each entry.

Each of the following entries comes with a recorded value; kindly state z-score for each.
1. COC(=O)[C@@]1(Cc2ccc(F)cc2)[C@H]2c3cc(C(=O)N(C)C)n(Cc4cccc5ccccc45)c3C[C@H]2CN1C(=O)c1ccccc1
2. CCCNC(=O)[C@@]1(Sc2ccc(C)cc2)CC(=O)N(Cc2cc(C(F)(F)F)cc(C(F)(F)F)c2)[C@@H]1c1ccc(CO)cc1
3. COCCCNC(=O)[C@@]1(c2ccc([N+](=O)[O-])cc2)CC(=O)N(C2CCCCC2)[C@@H]1c1ccc(CO)cc1I

Result string:
1: 1.43; 2: -0.0276; 3: -0.307

###

ASSAY_PROCEDURE: compound binding in COS7 lysate, probe aLAP1, primary screen, cell lysate, small-molecule microarray (AID 1124);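 note: lysate comes from COS7 cells expressing LAP1 and is applied at 0.3 µg/mL; score merges spot fluorescence near 667 nm with signal-to-noise over triplicate slides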
CONDITION_SUMMARY: probe aLAP1, fluorescence, higher = more signal
Field: class. Source value: composite z-score. Ranges: c1: < 0.2; c2: ≥ 0.2 and < 0.7; c3: ≥ 0.7

| COMPOUND | CAT |
| --- | --- |
| C=CCNC(=O)[C@H]1[C@@H]2C(=O)O[C@@H](c3ccccc3)[C@@H](c3ccccc3)N2[C@@H](c2ccc(O)cc2)[C@]12C(=O)Nc1ccccc12 | c2 |

Query string: Which composite z-score band matches CS(=O)(=O)CCOC(=O)C1=CC(CCCO)=CC(C2CC2)N(Cc2sc3ccccc3c2Cl)C=C1C(=O)OCCS(C)(=O)=O (stereo not given) ?
Result string: c2

Query string: Which composite z-score band matches O=C1C2C=CC(C(O)C3CCCCC3)N(Nc3ccccc3F)C2C(=O)N1c1ccccc1 (stereo not given) ?
Result string: c3

Query string: Which composite z-score band matches C=CCC(OC(C)=O)[C@@H]1[C@@H](N(Cc2ccc(-c3ccccc3)cc2)C(=O)Cc2ccc(OC)cc2)c2cc(OCCCO)ccc2N1C(=O)c1ccc2ccccc2c1 (stereo not given in full) ?
Result string: c1

Query string: Which composite z-score band matches O=C1c2ccccc2[C@](Cc2ccccc2I)(C(=O)NCCN2CCOCC2)[C@H](c2ccc(CO)cc2)N1Cc1ccccc1C(F)(F)F ?
Result string: c2

Query string: Which composite z-score band matches O=C1O[C@H](c2ccccc2)[C@H](c2ccccc2)N2[C@H]1[C@@H](C(=O)N1CCN(c3ncccn3)CC1)[C@]1(C(=O)Nc3ccc(C#CC4(O)CCCCCC4)cc31)[C@H]2c1ccc(O)cc1 ?
Result string: c2

Query string: Which composite z-score band matches COc1ccc(NN2C(C(O)c3ccc(F)cc3)C=CC3C(=O)N(C4CCCCC4)C(=O)C32)cc1 (stereo not given) ?
Result string: c1

Query string: Which composite z-score band matches [N-]=[N+]=Nc1ccccc1C[C@]1(C(N)=O)COC(c2ccc(OCCCO)cc2)=N1 ?
Result string: c3

###

ASSAY_PROCEDURE: MM1S cell viability effects, profiling panel, calcein-AM fluorescence, 48 h, basal (AID 1165);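 note: viability of MM1S multiple myeloma cells under basal unstimulated conditions; test concentration not given here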
CONDITION_SUMMARY: higher = more signal
PROPERTY_MEASURED: z-score
Answers are plain numbers.

Solved entries (count: 4):
| COMPOUND | z-score |
| --- | --- |
| COc1ccc(CCNC(=O)[C@@H]2c3ccccc3C(=O)N(Cc3cc(F)cc(C(F)(F)F)c3)[C@H]2c2ccc(CO)cc2)cc1 | -0.696 |
| C=CCNC(=O)[C@@H]1[C@H]2C(=O)O[C@H](c3ccccc3)[C@H](c3ccccc3)N2[C@H](c2ccc(OCCO)cc2)[C@@]12C(=O)Nc1ccc(C#CC3=CCCCC3)cc12 | -2.12 |
| C=CCNC(=O)[C@@H]1[C@H]2C(=O)O[C@H](c3ccccc3)[C@H](c3ccccc3)N2[C@H](c2ccc(OCCO)cc2)[C@@]12C(=O)Nc1ccc(C#CCNC(N)=O)cc12 | 0.0041 |
| C=CCNC(=O)[C@H]1[C@@H]2C(=O)O[C@@H](c3ccccc3)[C@@H](c3ccccc3)N2[C@@H](c2ccc(O)cc2)[C@]12C(=O)N(C(=O)OCCOC)c1ccc(C#Cc3ccc(OC)cc3)cc12 | -1.26 |

Each of the following entries comes with a recorded value; kindly state z-score for each.
1. CCCCCN1CC=CC23O[C@@H]4/C=C\CCCOC(=O)C4[C@H]2C(=O)N(CCCCCO)[C@@H]3C1=O (stereo partly specified)
2. CN(C)CCCC[C@@H]1NC(=O)[C@H]2C[C@@H](C(=O)NCCCCCCNC(=O)CS)[C@@H](c3cccc(OCCO)c3)N2C1=O

Result string:
1. 0.281
2. -0.315

###

Answer each item with its documented z-score.
ASSAY_PROCEDURE: osmotic lysis modulators in infected erythrocytes, primary screen, PSAC antagonist project, cell-based, P. falciparum Indochina, OD700, 3 h (AID 1156)
CONDITION_SUMMARY: higher = more signal, called active from +8 up or from −8 down
Numbers only.

| SMILES | z-score |
| --- | --- |
| CCOC(=O)C1=C[C@@H](C(C)(C)C)N(S(=O)(=O)c2ccc(C)cc2)[C@H]1c1ccc(OC)cc1 | 0.457 |

Each of the following entries comes with a recorded value; kindly state z-score for each.
1. COC(=O)[C@@]1(Cc2ccc(F)cc2)[C@H]2c3cc(C(=O)N(C)C)n(Cc4ccsc4Br)c3C[C@H]2CN1C(=O)c1ccccc1
2. CC(C)N1C(=O)[C@@]2(Cc3ccccc31)c1ccccc1C(=O)N(Cc1ccccc1C(F)(F)F)[C@H]2c1ccc(CO)cc1
3. COc1ccc([Si](C)(C)[C@H]2[C@H](CCO)O[C@@]3(C(=O)N(Cc4ccccc4)c4ccc(NC(=O)[C@H](C)O)cc43)[C@@H]2C)cc1

Result string:
1. 0.952
2. 0.238
3. 0.0811

Query string: Report z-score, nothing else, for this compound: COc1ccc([Si](C)(C)[C@H]2[C@H](CC(=O)N(CCO)Cc3ccccc3)O[C@@]3(C(=O)N(Cc4ccc(N5C(=O)c6cccc7cccc5c67)cc4)c4ccccc43)[C@@H]2C)cc1
Result string: 1.24

###

Answer each item with its documented composite z-score.
System: Noggin (protein binding on small-molecule microarray)
ASSAY_PROCEDURE: Noggin binders on small-molecule microarray, primary screen, biochemical, 635/667 nm fluorescence (AID 1095);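 note: score merges 667 nm feature fluorescence with signal to noise over triplicate slides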
CONDITION_SUMMARY: 635 nm fluorescence, higher = more signal
Give bare numbers.

| COMPOUND | composite z-score |
| --- | --- |
| COC(=O)[C@@]1(Cc2ccc(F)cc2)[C@H]2c3cc(C(=O)N4CCCC4)n(CCc4c[nH]c5cc(F)ccc45)c3C[C@H]2CN1C(=O)c1ccccc1 | 0.344 |

Each of the following entries comes with a recorded value; kindly state composite z-score for each.
1. O=C1NC(=O)C2C1C=CC(C(O)c1ccc(F)cc1)N2Nc1ccc(Cl)cc1Cl (configuration not stated)
2. COC(=O)[C@@]1(Cc2ccc(OC)cc2)[C@H]2c3cc(C(=O)N(C)C)n(Cc4c(CO)[nH]cc(C)c4=O)c3C[C@H]2CN1C(=O)c1ccccc1
3. CCCCC(=C=CC[C@H](O)c1ccccc1OCCO)CCO
4. COCCOC(=O)N1C(=O)[C@@]2(c3cc(C#CCNC(N)=O)ccc31)[C@H](c1ccccc1OCCO)N1[C@H](c3ccccc3)[C@H](c3ccccc3)OC(=O)[C@H]1[C@@H]2C(=O)N1CCCCCCC1
5. C=CCOC(=O)[C@H]1[C@@H]2C(=O)O[C@@H](c3ccccc3)[C@@H](c3ccccc3)N2[C@@H](c2ccc(OCCOC(=O)[C@H]3C[C@H]4C(=O)NCC(=O)N4[C@H]3c3ccc(O)cc3)cc2)[C@]12C(=O)Nc1ccccc12

Result string:
1. -0.749
2. 0.0072
3. -0.0419
4. 0.911
5. 1.22

Query string: Report composite z-score, nothing else, for this compound: COC(=O)C1=CC(c2ccc(CO)cc2)=CC(C2CC2)N(Cc2cc3c(cc2Br)OCO3)C=C1C(=O)OC (configuration not stated)
Result string: 0.092

###

ASSAY_PROCEDURE: PSAC antagonists in infected red cells, primary screen, cell-based, P. falciparum Indochina, OD700, 1 h (AID 1154)
CONDITION_SUMMARY: P. falciparum Indochina infected RBC osmotic lysis, higher = more signal, called active from +8 up or from −8 down
Field: class. Source value: z-score. Ranges: range A = under 2, range B = from 2 up to 4, range C = 4 and over

Query string: Which z-score band matches CN1C2C=C(c3ccc(CO)cc3)C(C3C(=O)N(C(N)=O)C(=O)C32)C1C1CC1 (stereo not drawn) ?
Result string: range A

Query string: Which z-score band matches O=C1NC(=O)C2C1C=CC(C(O)C(O)CO)N2Nc1ccccn1 (stereo not drawn) ?
Result string: range A

Query string: Which z-score band matches COCCOC(=O)N1C(=O)[C@@]2(c3cc(C#CCNC(N)=O)ccc31)[C@H](c1ccc(O)cc1)N1[C@H](c3ccccc3)[C@H](c3ccccc3)OC(=O)[C@H]1[C@@H]2C(=O)N1CCc2cc(OC)c(OC)cc2C1 ?
Result string: range A

Query string: Which z-score band matches COC(=O)[C@@]1(Cc2ccc(OC)cc2)[C@@H]2[C@@H](CC(=O)[C@H]2CC(=O)C(=O)N(C)C)CN1C(=O)c1ccccc1 ?
Result string: range B
